We begin with a simple list: items and their reported max response.
# testName: qHTS RealTime-Glo MT Cell Viability Assay in HEK293 cells - 40 hour (AID 1224874); also: % is scaled to controls: 0 for no effect and ±100 for the full control effect; nearly all actives have a fitted effect of over 50% in size
# conditionSummary: RealTime-Glo luminescence; active compounds read low
Results filed as inconclusive are left out.
Reply with just the number (in %).

Here are 8 compounds together with their reported answers.
[
  {
    "compound": "O=c1[nH]c2ccccc2o1",
    "max response [%]": -0.283
  },
  {
    "compound": "Oc1ccc2c3c1O[C@H]1[C@@H](O)C=C[C@H]4[C@@H](C2)NCC[C@@]341",
    "max response [%]": -1.32
  },
  {
    "compound": "CCOP(=S)(OCC)SCCl",
    "max response [%]": -0.801
  },
  {
    "compound": "CCOC(=O)C(SP(=S)(OC)OC)c1ccccc1 (stereo unspecified)",
    "max response [%]": -6.34
  },
  {
    "compound": "N#CN=C1SCCN1Cc1ccc(Cl)nc1",
    "max response [%]": -3.59
  },
  {
    "compound": "C1CN2CCC1CC2",
    "max response [%]": 0.665
  },
  {
    "compound": "CON(C)C(=O)Nc1ccc(Br)cc1",
    "max response [%]": -9.38
  },
  {
    "compound": "Cc1ccc2cc(C)ccc2c1",
    "max response [%]": 8.7
  }
]

# query: max response of entry CCCCCCC1CCOC1=O (stereo unspecified)
-0.816

# query: max response of entry O=c1[nH]oc2c1CCNC2
5.54

# query: max response of entry Cl/C=C/CCl
7.85

# query: max response of entry CNC(=O)Oc1ccccc1C(C)C
3.33

# query: max response of entry C/C=C/CC#N
9.52

# query: max response of entry CCCCS(=O)(=O)Cl
6.29

# query: max response of entry C=CCc1cc(OC)c2c(c1)OCO2
8.43

# query: max response of entry CC(C)NCC(O)c1ccc([N+](=O)[O-])cc1 (stereo unspecified)
6.95

----------
# testedOn: Nuclear receptor subfamily 1 group I member 3 (Homo sapiens)
# testName: qHTS assay to identify small molecule antagonists of the constitutive androstane receptor (CAR) signaling pathway (AID 1224838);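 also: HepG2 cells stably expressing hCAR with CYP2B6 luciferase reporter stimulated by CITCO; % is scaled to controls: 0 for no effect and ±100 for the full control effect; nearly all actives have a fitted effect of over 40% in size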
# conditionSummary: HepG2-CYP2B6-hCAR luciferase, CITCO-stimulated, 24 h; series mostly up to 92.4 µM
Results filed as inconclusive are left out. The source made the active and inactive calls. Calls come from the whole dose curve; as a rule, active = well fitted inhibition curve with a large enough effect in the repeat runs; inconclusive = weak or mixed curves, or effect the other way; inactive = no such curve, though single readings can be large or run the other way.
Choose the fitting class; nothing outside active, inactive is accepted.

Use the examples below as a reference point.
[
  {
    "compound": "CC1=C2[C@H]3OC(=O)[C@@H](C)[C@@H]3CC[C@@]2(C)C=CC1=O",
    "classLabel": "inactive"
  },
  {
    "compound": "O=C(Cl)C(Cl)Cl",
    "classLabel": "inactive"
  },
  {
    "compound": "CCCCS(=O)(=O)Cl",
    "classLabel": "inactive"
  },
  {
    "compound": "O=C(O)C(F)(F)C(F)(F)C(F)(F)C(F)(F)C(F)(F)C(F)(F)F",
    "classLabel": "inactive"
  },
  {
    "compound": "O=[N+]([O-])c1cccc(CCl)c1",
    "classLabel": "inactive"
  },
  {
    "compound": "C=CCc1cc(OC)c2c(c1)OCO2",
    "classLabel": "inactive"
  },
  {
    "compound": "CCCCCCCC(=O)Cl",
    "classLabel": "inactive"
  },
  {
    "compound": "ClCC1CO1 (stereo not drawn)",
    "classLabel": "inactive"
  }
]

Entry COc1ccc(C=O)cc1O : call = ?
inactive

Entry CCCN1CCC[C@@H]2Cc3[nH]ncc3C[C@H]21 : call = ?
inactive
